Data provenance is patent US20260092071A1.

biological target: SMARCA4 (Homo sapiens); test: HiBit assay in engineered HT1080 CRISPR knock-in cell, 6 hrs (B series), SMARCA4; assay type: cell-based; details: HT1080 CRISPR knock-in cells, 6 hrs incubation; read-out: SMARC A4 HT1080 HiBit DC50
Sequence (P51532 whole entry): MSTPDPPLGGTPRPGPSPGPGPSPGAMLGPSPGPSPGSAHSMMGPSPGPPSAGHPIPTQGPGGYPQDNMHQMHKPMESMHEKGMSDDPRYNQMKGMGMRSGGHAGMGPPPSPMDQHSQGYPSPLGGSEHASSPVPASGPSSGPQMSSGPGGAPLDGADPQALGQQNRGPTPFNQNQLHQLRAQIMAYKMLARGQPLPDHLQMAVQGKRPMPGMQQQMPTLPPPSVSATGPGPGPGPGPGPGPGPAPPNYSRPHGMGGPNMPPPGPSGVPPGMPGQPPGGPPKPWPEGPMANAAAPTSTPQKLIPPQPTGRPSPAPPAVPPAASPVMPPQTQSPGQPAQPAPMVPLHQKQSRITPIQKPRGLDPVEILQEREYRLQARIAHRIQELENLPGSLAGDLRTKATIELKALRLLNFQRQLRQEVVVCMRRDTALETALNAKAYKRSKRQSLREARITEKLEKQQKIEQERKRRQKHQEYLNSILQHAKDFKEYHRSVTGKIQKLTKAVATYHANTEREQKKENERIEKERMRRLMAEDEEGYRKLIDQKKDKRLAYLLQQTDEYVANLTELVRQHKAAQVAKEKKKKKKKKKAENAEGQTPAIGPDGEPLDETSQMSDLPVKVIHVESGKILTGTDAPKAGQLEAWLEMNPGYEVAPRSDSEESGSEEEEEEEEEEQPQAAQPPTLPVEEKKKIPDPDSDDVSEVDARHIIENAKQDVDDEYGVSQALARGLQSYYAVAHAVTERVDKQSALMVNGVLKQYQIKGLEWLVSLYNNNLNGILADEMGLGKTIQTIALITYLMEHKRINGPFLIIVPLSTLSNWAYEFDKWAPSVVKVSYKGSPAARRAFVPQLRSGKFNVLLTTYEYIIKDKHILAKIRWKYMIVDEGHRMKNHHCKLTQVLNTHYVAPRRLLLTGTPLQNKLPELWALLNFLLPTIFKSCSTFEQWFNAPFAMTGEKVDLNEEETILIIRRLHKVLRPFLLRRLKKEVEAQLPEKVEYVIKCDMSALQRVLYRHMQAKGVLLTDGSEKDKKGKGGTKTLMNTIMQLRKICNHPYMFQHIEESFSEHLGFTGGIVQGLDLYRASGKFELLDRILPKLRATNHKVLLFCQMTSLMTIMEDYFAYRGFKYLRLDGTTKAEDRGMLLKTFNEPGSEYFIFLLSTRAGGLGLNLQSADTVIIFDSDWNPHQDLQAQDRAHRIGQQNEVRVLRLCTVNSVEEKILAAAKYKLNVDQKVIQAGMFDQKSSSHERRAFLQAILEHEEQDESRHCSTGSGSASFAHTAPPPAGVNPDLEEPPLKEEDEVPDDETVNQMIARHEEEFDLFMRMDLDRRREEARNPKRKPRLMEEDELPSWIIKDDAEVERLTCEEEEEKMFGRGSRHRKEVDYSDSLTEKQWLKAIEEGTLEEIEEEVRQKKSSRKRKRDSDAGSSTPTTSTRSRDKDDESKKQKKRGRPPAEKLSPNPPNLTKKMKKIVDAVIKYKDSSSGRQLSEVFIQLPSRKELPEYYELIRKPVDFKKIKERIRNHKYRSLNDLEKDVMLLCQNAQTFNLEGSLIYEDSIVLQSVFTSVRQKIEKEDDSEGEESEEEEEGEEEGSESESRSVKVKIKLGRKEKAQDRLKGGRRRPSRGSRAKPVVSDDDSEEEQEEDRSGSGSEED
Each entry below carries its reported DC50.

Guide cases for DC50, answers given:
>>> measurement("Cc1ncsc1-c1ccc([C@H](C)NC(=O)[C@@H]2C[C@@H](O)CN2C(=O)C(c2cc(CCN3CCC(c4ccc5c(c4)C(C)(C)c4nc(=O)c6c(Cl)cccc6n4-5)CC3)no2)C(C)C)cc1 (some centres unmarked)")
"< 100 nM"
>>> measurement("Cc1ncsc1-c1ccc([C@H](C)NC(=O)[C@@H]2C[C@@H](O)CN2C(=O)[C@@H](c2cc(OC3CCC(CN4CCC(c5ccc6c(c5)C(C)(C)c5nc(=O)c7c(Cl)cccc7n5-6)CC4)CC3)no2)C(C)C)cc1 (some centres unmarked)")
"< 100 nM"

Look up DC50 for this molecule: CC(C)C(C(=O)N1C[C@H](O)C[C@H]1C(=O)N[C@@H](C)c1ccc(-c2ncnn2C)cc1)c1cc(OCCN2CCC(c3ccc4c(c3)C(C)(C)c3nc(=O)c5c(Cl)cccc5n3-4)CC2)no1 (some centres unmarked) [Compound B74]
> 1000 nM

Look up DC50 for this molecule: Cc1ncsc1-c1ccc([C@H](C)NC(=O)[C@@H]2C[C@@H](O)CN2C(=O)[C@@H](NC(=O)C2CC(N3CCC(c4ccc5c(c4)C(C)(C)c4nc(=O)c6c(Cl)cccc6n4-5)CC3)C2)C(C)(C)C)cc1 (some centres unmarked) [Compound B13]
100 to 500 nM

Look up DC50 for this molecule: Cc1ncsc1-c1ccc([C@H](C)NC(=O)[C@@H]2C[C@@H](O)CN2C(=O)C(c2cc(CN3CCC(c4ccc5c(c4)C(C)(C)c4nc(=O)c6c(Cl)cccc6n4-5)CC3)no2)C(C)C)cc1 (some centres unmarked)
< 100 nM
